protocol: Plasma protein binding in CD-1 mouse at 30 mg/kg, po by ultrafiltration technique
Type: ADME, organism-based
assaySetup: read-out: PPB (converted)
parameterMeasured: fraction unbound

**Query** So what's the measured fraction unbound for this one? O=c1[nH]nc(CCc2ccccc2)nc1O
**Result** 0.26

====

protocol: Tmax in CD-1 mouse plasma by HPLC-MS analysis
Type: ADME, organism-based
parameterMeasured: Tmax (min)
Entry rule: numbers only, all in min.

**Query** Recorded Tmax of O=c1[nH]nc(CCc2ccccc2)nc1O , please.
**Result** 30

====

experimentalSystem: D-amino-acid oxidase (Homo sapiens)
Sequence (P14920 whole entry): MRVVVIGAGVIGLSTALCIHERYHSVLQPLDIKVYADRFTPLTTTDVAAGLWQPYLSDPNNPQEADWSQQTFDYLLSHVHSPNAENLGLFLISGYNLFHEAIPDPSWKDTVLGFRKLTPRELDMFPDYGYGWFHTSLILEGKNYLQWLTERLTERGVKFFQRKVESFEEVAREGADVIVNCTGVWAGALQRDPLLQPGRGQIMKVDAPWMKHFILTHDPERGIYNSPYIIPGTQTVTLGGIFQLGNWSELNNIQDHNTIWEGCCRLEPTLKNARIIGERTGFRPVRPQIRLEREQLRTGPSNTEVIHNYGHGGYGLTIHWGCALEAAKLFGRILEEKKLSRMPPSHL
protocol: Inhibition of recombinant human DAAO assessed as oxidative deamination of D-serine in presence of molecular oxygen and FAD after 20 mins
Please respond with reported pIC50 for every item in the list.
# pIC50: negative log10 of molar concentration; output just the value

**Query** For the compound shown here, CC(C)(C)c1ccc(CSc2n[nH]c(=O)c(O)n2)cc1 , give the reported pIC50.
**Result** 6.52

**Query** Any idea what pIC50 was measured for O=c1[nH]nc(SCc2ccc(-c3ccccc3)cc2)nc1O ?
**Result** 7.05

**Query** // pIC50 lookup, key: O=c1[nH]nc(SCc2ccc(Cl)cc2)nc1O
**Result** 7.52

**Query** // returns reported pIC50 for input O=c1[nH]nc(CCc2ccccc2)nc1O
**Result** 7.22

**Query** Quick one: pIC50 of O=c1[nH]nc(CCCc2ccccc2)nc1O ?
**Result** 5.40

**Query** Please look up its pIC50: O=c1[nH]nc(SCc2ccc(Cl)c(Cl)c2)nc1O
**Result** 7.30

**Query** Bench note: what pIC50 did O=c1[nH]nc(Cc2ccccc2)nc1O show?
**Result** 7.15

Hey, just so you know, these numbers are from ChEMBL document CHEMBL3784922.
